Each recorded value in this set is attributed to patent US5834461A.

# system-name: vasopressin V1 receptor (rat liver plasma membranes) (Rattus norvegicus)
# Sequence (P30560 whole entry): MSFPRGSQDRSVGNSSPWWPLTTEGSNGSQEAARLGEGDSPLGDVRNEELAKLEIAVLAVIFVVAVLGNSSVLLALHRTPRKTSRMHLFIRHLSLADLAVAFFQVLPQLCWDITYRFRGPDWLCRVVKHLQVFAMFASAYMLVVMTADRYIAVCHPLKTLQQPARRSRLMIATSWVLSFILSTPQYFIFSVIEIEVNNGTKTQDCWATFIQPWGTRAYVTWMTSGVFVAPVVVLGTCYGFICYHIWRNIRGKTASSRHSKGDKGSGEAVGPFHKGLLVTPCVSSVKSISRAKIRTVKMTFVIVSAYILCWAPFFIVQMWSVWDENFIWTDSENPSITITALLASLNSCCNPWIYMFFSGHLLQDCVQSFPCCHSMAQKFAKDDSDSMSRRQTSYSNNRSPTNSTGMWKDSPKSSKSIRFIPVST
# assay: Binding Assay to Rat Hepatic V1 Receptors
# study-conditions: rat hepatic V1
endpoint-label: IC50 (nM)

Reference set, count: 2
1. Cc1ccccc1C(=O)Nc1ccc(C(=O)N2CCc3cn(C)nc3-c3ccccc32)cc1 [Example 379]    250
2. O=C(Nc1ccc(C(=O)N2Cc3ccccc3Cc3ccccc32)cc1)c1cc(Cl)cc(Cl)c1 [Example 251]    1500

(1) Cc1ccc(C(=O)Nc2ccc(C(=O)N3Cc4ccccc4Cc4ccccc43)cc2)c(C)c1 [Example 13]
(2) O=C(Nc1ccc(C(=O)N2Cc3ccccc3Cc3ccccc32)cc1)c1cc(Cl)ccc1Cl [Example 9]
Input pair: 1 , 2 . Output: entry with lower IC50. Identify your pick by its label.
1
